This collection of values is drawn from PubChem BioAssay (EPA / NIEHS).

PROTOCOL: Tanguay_ZF_120hpf_EYE_legacy: (Legacy) Oregon State University Tanguay Lab 120 Hour Post-fertilization zebrafish Assay for Eye Malformation (AID 2283636);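 also: binary presence or absence of eye malformation scored by brightfield in 120 hpf larvae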
Results filed as inconclusive are left out. The source made the active and inactive calls. The calls were made as follows: active = hit-call score of the fitted dose curve at least 0.9, where 1 is the maximum; inconclusive = response in the unintended direction; inactive = score below 0.9.
Thanks in advance; please answer with one of these: active, inactive

Worked cases, answers included:
| LINE NOTATION | CATEGORY LABEL |
| --- | --- |
| C=C(C)C(N)=O | inactive |
| C#C[C@]1(O)CC[C@H]2[C@@H]3CCc4cc(O)ccc4[C@H]3CC[C@@]21C | inactive |
| CCCCOCCOCCO | inactive |

--- query ---
-- ask How was COC(=O)c1ccc(C(=O)OC)cc1 classified in this test?
-- reply active

###

PROTOCOL: CCTE_Padilla_ZF_Score.Living: CCTE's 144 Hour Post-fertilization zebrafish Assay Score for Viability, Padilla Lab (AID 2284410);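 also: larval death at 6 dpf judged by absent heartbeat or coagulation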
Calls of active or inactive are those of the source. Rule for the calls: active = hit-call score of the fitted dose curve at least 0.9, where 1 is the maximum; inactive = score below 0.9.

| LINE NOTATION | AC50 |
| --- | --- |
| O=C(O)C(F)(F)OC(F)(F)C(F)(F)OC(F)(F)C(F)(F)C(F)(F)C(F)(F)F | 81.2 µM (active) |
| C=C(F)C(=O)OC(C(F)(F)F)C(F)(F)F | inactive |
| C=C(C)C(=O)OCCC(F)(F)C(F)(F)C(F)(F)C(F)(F)C(F)(F)C(F)(F)C(F)(F)C(F)(F)F | inactive |
| O=S(=O)(O)C(F)(F)C(F)(F)OC(F)(F)C(F)(F)F | inactive |

###

TARGET ENTITY: Hepatocyte nuclear factor 6 (Homo sapiens)
PROTOCOL: ATG_HNF6_CIS: Attagene CIS-FACTORIAL HepG2 Assay for human Hepatocyte Nuclear Factor 6 (HNF6) (AID 2282952)
RECORDED CONDITIONS: HepG2 Attagene cis-factorial HNF6 reporter transcription; actives raise or lower the signal
The source made the active and inactive calls. How the source made its calls: active means hit-call score of the fitted dose curve at least 0.9, where 1 is the maximum; inactive means score below 0.9.
Thanks in advance; please answer with one of these: T (active), F (inactive)

| COMPOUND | CATEGORY LABEL |
| --- | --- |
| CC/C=C\C#N | F |
| CC(C)(C)c1ccc(S)cc1 | F |
| CC1COC(=O)O1 (stereo not drawn) | F |
| OCC=Cc1ccccc1 | F |
| CCCO[Si](OCCC)(OCCC)OCCC | F |
| CCOC(=O)CC1(C)OCC(C)O1 (stereo not drawn) | F |
| CN(C)C(=O)Nc1ccccc1 | F |
| CCC(=O)OCC=Cc1ccccc1 | F |
| NNC(=O)OCc1ccccc1 | F |
| CCCCCCC(C)O (stereo not drawn) | F |

-- ask How was C=CCOC(=O)/C=C\C(=O)OCC=C classified in this test?
-- reply T

-- ask How was C=C(C)C(=O)OCCOCCOC(=O)C(=C)C classified in this test?
-- reply F

-- ask How was CCCCOCCOCCOCCO classified in this test?
-- reply F

-- ask How was C=CC(C)(CCC=C(C)C)OC(=O)CC (stereo not drawn) classified in this test?
-- reply F

-- ask How was CC/C=C\CCCCO classified in this test?
-- reply F

-- ask How was CCCCCC1CCC(=O)O1 (stereo not drawn) classified in this test?
-- reply F

-- ask How was CN1CCc2cccc3c2[C@H]1Cc1ccc(O)c(O)c1-3 classified in this test?
-- reply F

-- ask How was CCC(C)COC(=O)CC(C)C (stereo not drawn) classified in this test?
-- reply F

-- ask How was CC(C)N(c1ccccc1)C(C)C classified in this test?
-- reply F

-- ask How was [O-]/[N+](=N\O)c1ccccc1 classified in this test?
-- reply F

-- ask How was CC(O)CNCC(C)O (stereo not drawn) classified in this test?
-- reply F

-- ask How was CC(C)Cc1ccc(C(C)C(=O)O)cc1 (stereo not drawn) classified in this test?
-- reply F

-- ask How was CC(C)=CC(=O)O classified in this test?
-- reply F

-- ask How was C=C1CC/C=C(\C)CC[C@@H]2[C@@H]1CC2(C)C classified in this test?
-- reply F

-- ask How was CC(=O)Oc1c(C)c(C)c2c(c1C)CC[C@@](C)(CCC[C@H](C)CCC[C@H](C)CCCC(C)C)O2 classified in this test?
-- reply F

-- ask How was CC(C)N1C(=O)c2ccccc2C1=O classified in this test?
-- reply F

-- ask How was O=C(O)c1ccccc1O classified in this test?
-- reply F

-- ask How was ClCCOCCOCCCl classified in this test?
-- reply F

-- ask How was CCC(CC)CO classified in this test?
-- reply F

-- ask How was CCCCC/C=C\C=C\C(=O)OCC classified in this test?
-- reply F

###

Read-out: Interleukin-8 (IL8), CXCL8 (gene 3576)
PROTOCOL: BSK_LPS_IL8: BioMAP Diversity Plus: LPS Assay for Interleukin-8 (IL8) Biomarker Activity (AID 2283078)
RECORDED CONDITIONS: primary human HUVEC with PBMC; actives raise or lower the signal
Activity calls are given as the source filed them. How the source made its calls: active means hit-call score of the fitted dose curve at least 0.9, where 1 is the maximum; inactive means score below 0.9.
Thanks in advance; please answer with one of these: class 1 for active, class 0 for inactive

Worked cases, answers included:
| COMPOUND | CATEGORY LABEL |
| --- | --- |
| CC(=O)c1ccc(C)cc1 | class 0 |
| C=C(C)C(=O)OCCC(F)(F)C(F)(F)C(F)(F)C(F)(F)C(F)(F)C(F)(F)C(F)(F)C(F)(F)F | class 0 |
| O=C1OC2(c3ccc(O)cc3Oc3cc(O)ccc32)c2ccccc21 | class 0 |
| CC(C)(C)c1cccc(O)c1 | class 0 |
| CC(C)CCCC(C)(C)O | class 0 |

-- ask How was C=C(C)C(N)=O classified in this test?
-- reply class 0

-- ask How was C=CC(=O)OCC(CO)(COC(=O)C=C)COC(=O)C=C classified in this test?
-- reply class 1

###

TARGET ENTITY: human Retinoid X Receptor beta (RXRb), RXRB (gene 6257) (UniProt P28702)
Sequence (P28702 whole entry, looked up): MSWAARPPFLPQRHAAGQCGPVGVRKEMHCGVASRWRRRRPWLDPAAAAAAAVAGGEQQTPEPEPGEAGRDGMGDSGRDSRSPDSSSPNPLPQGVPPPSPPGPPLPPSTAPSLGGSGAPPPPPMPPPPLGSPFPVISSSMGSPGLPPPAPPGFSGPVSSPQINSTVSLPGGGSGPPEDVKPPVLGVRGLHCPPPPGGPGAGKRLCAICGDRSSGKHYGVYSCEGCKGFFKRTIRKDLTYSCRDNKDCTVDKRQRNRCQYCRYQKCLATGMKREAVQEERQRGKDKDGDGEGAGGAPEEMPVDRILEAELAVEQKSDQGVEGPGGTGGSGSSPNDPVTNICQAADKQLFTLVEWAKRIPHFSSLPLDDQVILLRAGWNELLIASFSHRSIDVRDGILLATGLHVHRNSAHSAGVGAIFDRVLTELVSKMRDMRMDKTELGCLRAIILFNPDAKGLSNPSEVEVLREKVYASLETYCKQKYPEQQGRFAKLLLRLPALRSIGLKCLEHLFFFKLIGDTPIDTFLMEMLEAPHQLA
PROTOCOL: ATG_RXRb_TRANS: Attagene TRANS-FACTORIAL HepG2 Assay for human Retinoid X Receptor beta (RXRb) (AID 2283013)
Results filed as inconclusive are left out. Active and inactive are the calls of the source. The calls were made as follows: active = hit-call score of the fitted dose curve at least 0.9, where 1 is the maximum; inconclusive = response in the unintended direction; inactive = score below 0.9.
Thanks in advance; please answer with one of these: YES for active, NO for inactive

| MOLECULE | CATEGORY LABEL |
| --- | --- |
| CC(=O)OC(C)(C)C | NO |

-- ask How was C=CC(=O)OCC(CO)(COC(=O)C=C)COC(=O)C=C classified in this test?
-- reply NO

-- ask How was CC/C=C\CCOC(=O)C(C)C classified in this test?
-- reply NO

-- ask How was COc1ccccc1NC(=O)CC(C)=O classified in this test?
-- reply NO

###

PROTOCOL: ATG_TAL_CIS: Attagene CIS-FACTORIAL HepG2 Assay for human TAL Basal Promoter (AID 2282966);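 also: background control endpoint measuring basal TAL promoter reporter mRNA not a specific factor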
RECORDED CONDITIONS: HepG2 Attagene cis-factorial TAL promoter reporter; actives raise or lower the signal
Calls of active or inactive are those of the source. Rule for the calls: active = hit-call score of the fitted dose curve at least 0.9, where 1 is the maximum; inactive = score below 0.9.
QUANTITY: outcome

| MOLECULE | QUANTITY | OBSERVED MEASUREMENT |
| --- | --- | --- |
| CCCCCCCCCCOC(=O)c1ccccc1C(=O)OCCCCCCCC | outcome | inactive |
| CCOCC(C)O (configuration not stated) | outcome | inactive |
| CCCC(O)C(CC)CO (configuration not stated) | outcome | inactive |
| CCc1cccc(O)c1 | outcome | inactive |
| CCCCCCCCCCCCCCCCCC(=O)OCCCCCCCCCCCCCC(C)C | outcome | inactive |

-- ask Tell me the measured outcome of CC1(C)[C@H](C=C(Cl)Cl)[C@H]1C(=O)OCc1cccc(Oc2ccccc2)c1 , please.
-- reply inactive

-- ask Tell me the measured outcome of Nc1cc([N+](=O)[O-])ccc1C(=O)O , please.
-- reply inactive

###

TARGET ENTITY: Retinoic acid receptor RXR-alpha (Homo sapiens) (UniProt P19793)
Sequence (P19793 whole entry, looked up): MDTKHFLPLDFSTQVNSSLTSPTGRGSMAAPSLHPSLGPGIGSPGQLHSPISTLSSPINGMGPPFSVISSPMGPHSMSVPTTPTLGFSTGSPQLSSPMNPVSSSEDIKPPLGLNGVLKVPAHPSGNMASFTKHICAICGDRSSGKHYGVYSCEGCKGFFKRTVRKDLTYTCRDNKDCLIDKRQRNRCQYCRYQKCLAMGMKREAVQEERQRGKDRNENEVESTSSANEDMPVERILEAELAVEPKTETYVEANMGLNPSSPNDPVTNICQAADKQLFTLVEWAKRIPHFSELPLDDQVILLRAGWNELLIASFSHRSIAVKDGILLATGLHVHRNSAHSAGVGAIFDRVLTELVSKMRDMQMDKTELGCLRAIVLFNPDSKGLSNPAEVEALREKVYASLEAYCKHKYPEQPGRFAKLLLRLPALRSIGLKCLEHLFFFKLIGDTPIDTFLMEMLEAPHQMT
PROTOCOL: OT_NURR1_NURR1RXRa_0480: Odyssey Thera (OT) 8-hour HEK293T Protein Complementation Assay for Nurr1/retinoid X receptor (RXR) (AID 2283385)
Records with an inconclusive call do not appear. Active and inactive are the calls of the source. How the source made its calls: active means hit-call score of the fitted dose curve at least 0.9, where 1 is the maximum; inconclusive means response in the unintended direction; inactive means score below 0.9.
Thanks in advance; please answer with one of these: active, inactive

Worked cases, answers included:
| COMPOUND | CATEGORY LABEL |
| --- | --- |
| C=C(C)C(N)=O | inactive |
| CCCCCCCCOC(C)=O | inactive |

-- ask How was CCCO classified in this test?
-- reply inactive

###

PROTOCOL: ATG_FoxO_CIS: Attagene CIS-FACTORIAL HepG2 Assay for human Forkhead box O (FoxO) (AID 2282943)
RECORDED CONDITIONS: HepG2 Attagene cis-reporter, FoxO element, mRNA; actives raise or lower the signal
Active and inactive are the calls of the source. How the source made its calls: active means hit-call score of the fitted dose curve at least 0.9, where 1 is the maximum; inactive means score below 0.9.
Thanks in advance; please answer with one of these: active, inactive

Worked cases, answers included:
| MOLECULE | CATEGORY LABEL |
| --- | --- |
| O=C1OCc2ccccc21 | inactive |
| CCOC(=O)CC(C)C | inactive |
| C1CCCNCC1 | inactive |
| CC=CC(=O)C1=C(C)C=CCC1(C)C | inactive |
| CC1=CC[C@@H](C(C)(C)O)CC1 | inactive |

-- ask How was CCC(=O)OCC=Cc1ccccc1 classified in this test?
-- reply inactive

-- ask How was NS(=O)(=O)c1cc(C(=O)O)c(NCc2ccco2)cc1Cl classified in this test?
-- reply inactive

-- ask How was C=COCC1CCC(COC=C)CC1 (configuration not stated) classified in this test?
-- reply inactive

-- ask How was CN(C)CCC=C1c2ccccc2CCc2ccccc21 classified in this test?
-- reply inactive

-- ask How was CCCO classified in this test?
-- reply inactive

-- ask How was CC1=CCC(=C(C)C)CC1 classified in this test?
-- reply inactive

-- ask How was COc1ccccc1NC(=O)CC(C)=O classified in this test?
-- reply inactive

-- ask How was C=CC(C)CCCC(C)(C)O (configuration not stated) classified in this test?
-- reply inactive
